Test: Solubility in various solvents
Assay type: physicochemical
Parameters: key: +++: dissolved well; ++: almost dissolved, but not completely dissolved and somewhat precipitated; +: opaquely dispersed; −: not dissolved but precipitated
Conditions: toluene
READOUT NAME: Solubility in toluene

Here's what some known entries look like.
Cc1cc(OCCCS(=O)(=O)O)ccc1O = −
Cc1cccc(OCCCS(=O)(=O)O)c1 = −
O=S(=O)(O)CCCOc1ccc(-c2ccccc2)cc1 = −
O=S(=O)(O)CCCOc1ccc(OCc2ccccc2)cc1 = −

Q: Determine its reported Solubility in toluene: O=S(=O)(O)CCCOc1ccc(O)cc1
A: −
